Here, each record is paired with measured protein stability index data.
test: protein stability index of a GFP-peptide fusion (yeast GPS) (PSI 1-4); higher = more stable; sorted into four equal gates, so the index is relative within each strain; details: pdr5∆
Answer field: number only, no words.

Some solved entries appear below for comparison.
{"CHAIN_SEQUENCE": "IMWQLLDGVSYLHQNWV [SSN3]", "protein stability index": 1.59}
{"CHAIN_SEQUENCE": "VPDSKIRIYDLGKKKAT [RPL10]", "protein stability index": 1.35}
{"CHAIN_SEQUENCE": "LTNMMSPMGNAYSMGAQ [PGD1]", "protein stability index": 2.64}
{"CHAIN_SEQUENCE": "NSGKQQYYRGLPLYEKN [SWP82]", "protein stability index": 2.5}
{"CHAIN_SEQUENCE": "LNKFKKAIFQFVCRGMA [ECM29]", "protein stability index": 2.08}

Next up:
Exercise: Entry HFENAKVIDLDTKLKAH [YIL149C/MLP2] : reported protein stability index = ?
Key: 2.73
